test system: SF-295 CNS; test: NCI-60 one-dose screen, 48 h (100 = growth as untreated, 0 = no growth, -100 = all killed); conditions: 10 µM unless noted
About 83,000 compounds went through this panel and 20% of them were active in at least one assay; those are over-represented in the sample as a whole.
Respond with Met for growth values of 70% and above, Not met for values below.

Reported growth reaches at least 70% for C=C1C(=O)O[C@H]2[C@H]1CC/C(COC(=O)CCSSCCC(=O)OC/C1=C/CC[C@@]3(C)O[C@H]3[C@H]3OC(=O)C(=C)[C@@H]3CC1)=C\CC[C@@]1(C)O[C@@H]21 ?
Met

Determine whether measured growth meets or exceeds 70% for CCCCCCCCCCCCCCCCCCOc1ccccc1CCCOP(=O)(O)OCC[N+](C)(C)C
Not met

***
Could you tell me if the measured growth of C=C1C(=O)O[C@H]2[C@H]1CC/C(COC(=O)C(C)c1ccc(CC(C)C)cc1)=C\CC[C@@]1(C)O[C@@H]21 (stereo partly drawn) reaches 70% or more?
Met

In plain terms: is recorded growth at least 70% for Cc1ccc(S(=O)(=O)N/N=C/C2(c3ccccc3)CC2)cc1 ?
Met

In plain terms: is recorded growth at least 70% for CN1C(=O)CNC(=O)[C@H](NC(=O)c2nc3ccccc3cc2O)CSSC[C@H]1C(=O)NCCCc1nc2ccccc2cc1O ?
Met

Threshold query (growth >= 70%) on CCCCCCNC(=O)Oc1ccc(/C(=C(\C)c2ccc(Cl)cc2)c2ccc(OCCN3CCCCC3)cc2)cc1
Not met

Hello, I need to know if CCCCNC(=O)Oc1ccc(/C(=C(\C)c2ccc(Cl)cc2)c2ccc(OCCN3CCCCC3)cc2)cc1 has measured growth not below 70%. Thanks!
Met

Test whether the compound Cc1cc(-c2cc(C)c(N)cc2C)c(C)cc1N records growth of 70% or higher.
Met
